test: Stability and biodistribution of prodrugs in vivo (HPLC of plasma and tissues); set-up: species or system mice (CD-1 nude; BALB/C where indicated); conditions: mouse, kidney, 50 mg/kg, KIDNEY, 30 min, 50 mg/kg i.p. or i.v., CD-1 nude mice; read-out: stability: percentage of material observed as intact prodrug, kidney
MEASURED QUANTITY: remaining at 0.5 h (%)

>>> print(df.to_string())
                                   molecule   measured_quantity  value_unit  result_number
0  Cc1nc2ccc3ccc(CNc4ccc(C(=O)N[C@@H](CCC(=O)O)C(=O)N[C@@H](Cc5cccc6ccccc56)C(=O)O)c(F)c4)cc3c2c(=O)[nH]1 [Prodrug 3]  remaining at 0.5 h           %             82
1  CN(Cc1cnc2nc(N)nc(N)c2n1)c1ccc(C(=O)N[C@@H](CCC(=O)O)C(=O)N[C@@H](Cc2ccc(O)c(C3CCCC3)c2)C(=O)O)cc1 [Prodrug 13]  remaining at 0.5 h           %            100
2  Nc1nc(N)c(CCCNc2ccc(C(=O)N[C@@H](CCC(=O)O)C(=O)N[C@@H](Cc3cccc(C4CCCC4)c3)C(=O)O)cc2)c(=O)[nH]1 [Prodrug 14]  remaining at 0.5 h           %            100

----------
assay: Stability and biodistribution of prodrugs in vivo (HPLC of plasma and tissues); parameters: species or system mice (CD-1 nude; BALB/C where indicated); details: mouse, large intestine, 50 mg/kg, LARGE INTESTINE, 30 min, 50 mg/kg i.p. or i.v., CD-1 nude mice; read-out: stability: percentage of material observed as intact prodrug, large intestine
Reported values of remaining at 0.5 h for individual entries
MEASURED QUANTITY: remaining at 0.5 h (%)

>>> print(df.to_string())
                                   compound  result_number
0  Cc1nc2ccc3ccc(CNc4ccc(C(=O)N[C@@H](CCC(=O)O)C(=O)N[C@@H](CCC(=O)O)C(=O)O)c(F)c4)cc3c2c(=O)[nH]1 [Prodrug 1]             93
1  CN(Cc1cnc2nc(N)nc(N)c2n1)c1ccc(C(=O)N[C@@H](CCC(=O)O)C(=O)N[C@@H](Cc2cccc(C3CCC3)c2)C(=O)O)cc1 [Prodrug 11]           74.5
2  CN(Cc1cnc2nc(N)nc(N)c2n1)c1ccc(C(=O)N[C@@H](CCC(=O)O)C(=O)N[C@@H](Cc2ccccc2)C(=O)O)cc1 [Prodrug 10, reference compound]           65.3

----------
experiment: Stability and biodistribution of prodrugs in vivo (HPLC of plasma and tissues); parameters: species or system mice (CD-1 nude; BALB/C where indicated); details: mouse, tumor, 50 mg/kg, TUMOR, 30 min, 50 mg/kg i.p. or i.v., CD-1 nude mice; read-out: stability: percentage of material observed as intact prodrug, tumor
MEASURED QUANTITY: remaining at 0.5 h

In [3]: df
Out[3]:
                                   compound  result
0  Cc1nc2ccc3ccc(CNc4ccc(C(=O)N[C@@H](CCC(=O)O)C(=O)N[C@@H](CCC(=O)O)C(=O)O)c(F)c4)cc3c2c(=O)[nH]1 [Prodrug 1]     96%
1  CN(Cc1cnc2nc(N)nc(N)c2n1)c1ccc(C(=O)N[C@@H](CCC(=O)O)C(=O)N[C@@H](Cc2cccc(C(C)(C)C)c2)C(=O)O)cc1 [Prodrug 12]   92.8%
2  CN(Cc1cnc2nc(N)nc(N)c2n1)c1ccc(C(=O)N[C@@H](CCC(=O)O)C(=O)N[C@@H](Cc2cccc(C3CCC3)c2)C(=O)O)cc1 [Prodrug 11]    100%
3  CN(Cc1cnc2nc(N)nc(N)c2n1)c1ccc(C(=O)N[C@@H](CCC(=O)O)C(=O)N[C@@H](Cc2ccccc2C(=O)O)C(=O)O)cc1 [Prodrug 7]    100%
4  Cc1nc2ccc3ccc(CNc4ccc(C(=O)N[C@@H](CCC(=O)O)C(=O)N[C@@H](Cc5ccccc5C(=O)O)C(=O)O)c(F)c4)cc3c2c(=O)[nH]1 [Prodrug 4]    100%
5  CN(Cc1cnc2nc(N)nc(N)c2n1)c1ccc(C(=O)N[C@@H](CCC(=O)O)C(=O)N[C@@H](CC(=O)O)C(=O)O)cc1 [Prodrug 6]     82%
6  Cc1nc2ccc3ccc(CNc4ccc5c(c4)CN([C@@H](CCC(=O)O)C(=O)N[C@@H](Cc4ccccc4)C(=O)O)C5=O)cc3c2c(=O)[nH]1 [Prodrug 2]     98%
7  CN(Cc1cnc2nc(N)nc(N)c2n1)c1ccc(C(=O)N[C@@H](CCC(=O)O)C(=O)N[C@@H](Cc2ccccc2)C(=O)O)cc1 [Prodrug 10, reference compound]     65%
8  Cc1nc2ccc3ccc(CNc4ccc(C(=O)N[C@@H](CCC(=O)O)C(=O)N[C@@H](Cc5ccccc5I)C(=O)O)c(F)c4)cc3c2c(=O)[nH]1 [Prodrug 5]     95%
